Data credit: PubChem BioAssay (NCI)

Test system: SNB-75 CNS
Assay: NCI tumour cell line growth inhibition, 48 h
REPORTED PROPERTY: GI50

- COMPOUND: "CCN1C(=O)c2ccc3c4c(ccc(c24)C1=O)C(=O)N(CCCNCc1ccccc1OC)C3=O"
  GI50: "1570 nM"
- COMPOUND: "CS(=O)(=O)CCNCc1coc(-c2ccc3ncnc(Nc4ccc(OCc5ccccc5)cc4)c3c2)c1"
  GI50: "3920 nM"
- COMPOUND: "CCN(CC)CCNC(Cc1ccccc1)c1ccc(OCc2ccccc2)cc1 (stereo not drawn)"
  GI50: "4290 nM"

Kindly review the next compound as well.
Quick one: GI50 of Nc1ncc(-c2cnn(C3CCNCC3)c2)cc1-c1nc2cc(Cl)ccc2o1 ?
1650 nM
